- Test system: SF-295
- experiment.description: NCI tumour cell line growth inhibition, 48 h
Calls of active or inactive are those of the source. No stated cut-off is given here; in the data, active = GI50 up to about 1.1 µM and inactive = higher.
observable: GI50

>  <compound>
CC(=O)O[C@H]1[C@@H](OC(C)=O)C(C)(C)/C=C/[C@H](C)C(=O)[C@@]2(OC(C)=O)C[C@@](C)(OC(C)=O)[C@H](OC(C)=O)[C@@H]2[C@H]2OC(=O)CC[C@@]2(OC(=O)c2ccccc2)[C@@H]1OCC(C)C

>  <observed.result>
3.63 µM (inactive)

$$$$
>  <compound>
CN(C)Cc1cc(C(=O)/C=C/c2ccccc2Cl)cc(CN(C)C)c1O

>  <observed.result>
14.6 µM (inactive)

$$$$
>  <compound>
O=C1CC(CC(O)C(O)C(O)CO)CC(=O)N1 (centres undefined)

>  <observed.result>
> 100 µM (inactive)

$$$$

Note to self: GI50 recorded for CC(C)CCc1c(Cl)nc(Cl)nc1Cl was 18.1 µM (inactive)

GET /value?item= Cn1cc(-c2cnc(-c3cn(C)c4ccccc34)cn2)c2ccccc21 &field=GI50 returns 2.44 µM (inactive)

Given item C/C=C(/C)C(=O)O[C@H]1C[C@@H]2[C@@H](O)c3occ(C)c3C[C@]2(C)[C@@H](C)C1 , the value recorded as its GI50 is 15.2 µM (inactive)

The reported value for CC[C@H](C)C1=C(OC(C)=O)[N@+]2([O-])Oc3ccc(-c4c(OC(C)=O)c(OC(C)=O)c(-c5ccc(OC(C)=O)cc5)c(OC(C)=O)c4OC(C)=O)cc3O[C@]2([C@@H](C)CC)C(=O)N1OC(C)=O in terms of GI50 is 9.25 µM (inactive)

---

- System: PC-3
- experiment.description: NCI tumour cell line growth inhibition, 48 h
The source made the active and inactive calls. Rule as the data show it: active = GI50 up to about 1.1 µM and inactive = higher.
observable: GI50

>  <compound>
C=CC(C)(C)c1cc([C@@H]2COc3cc(O)ccc3C2=O)c(O)c(OC)c1OC

>  <system.name>
PC-3

>  <observed.result>
12.9 µM (inactive)

$$$$
>  <compound>
CC(CC(=O)O)C(C(=O)O)C(=O)O (stereo not given)

>  <system.name>
PC-3

>  <observed.result>
> 100 µM (inactive)

$$$$
>  <compound>
Cc1cc(O)no1 [HYMEXAZOL]

>  <system.name>
PC-3

>  <observed.result>
> 100 µM (inactive)

$$$$
>  <compound>
O=C1CC(CC(O)C(O)C(O)CO)CC(=O)N1 (stereo not given)

>  <system.name>
PC-3

>  <observed.result>
> 100 µM (inactive)

$$$$
>  <compound>
COCCOC(C)C(=O)C(O)S(=O)(=O)O (stereo not given)

>  <system.name>
PC-3

>  <observed.result>
> 100 µM (inactive)

$$$$

--- query ---
Entry COc1cc(-c2c(C#N)c(N)c(C#N)c3c2COc2ccccc2-3)cc(OC)c1OC , GI50 reported as > 25.6 µM (inactive)

---

- Test system: UACC-257
- experiment.description: NCI tumour cell line growth inhibition, 48 h
The source made the active and inactive calls. Rule as the data show it: active = GI50 up to about 1.1 µM and inactive = higher.
observable: GI50

Consider the reported GI50 for these molecules:
>  <molecule>
O=c1nc2n3c4c(cccc4nc-2c(=O)[nH]1)CCC3

>  <observed.result>
> 100 µM (inactive)

$$$$
>  <molecule>
O=C(CNC(c1ccccc1)(c1ccccc1)c1ccccc1)NC1CCCCC1NC(=O)CNC(c1ccccc1)(c1ccccc1)c1ccccc1 (stereo not given)

>  <observed.result>
> 100 µM (inactive)

$$$$
>  <molecule>
CC(C)(C)c1cc(/C=C(\C#N)C(=O)NCCO)cc(C(C)(C)C)c1O

>  <observed.result>
17.5 µM (inactive)

$$$$
>  <molecule>
COc1ccc(/C=C2\NC(=S)N(CN3CCOCC3)C2=O)cc1

>  <observed.result>
> 100 µM (inactive)

$$$$

// switching to the query molecule
The reported GI50 value, UACC-257, for O=C(NN1C(=O)C(Cl)C1c1cccc([N+](=O)[O-])c1)c1ccccc1O (stereo not given) reads > 100 µM (inactive)

---

Recorded GI50 by entry
- Tested on: UACC-62
- experiment.description: NCI tumour cell line growth inhibition, 48 h
Active and inactive are the calls of the source. No stated cut-off is given here; in the data, active = GI50 up to about 1.1 µM and inactive = higher.

Guide cases for GI50, answers given:
>  <molecule>
COc1c(C(=O)O)cccc1-c1cccc(C(=O)NCCN(CCNC(=O)c2cccc(-c3cccc(C(=O)O)c3OC)c2OC)CCNC(=O)c2cccc(-c3cccc(C(=O)O)c3OC)c2OC)c1OC

>  <GI50>
25.8 µM (inactive)

$$$$
>  <molecule>
CC1(C)OB(O)OC1(C)C

>  <GI50>
> 100 µM (inactive)

$$$$
>  <molecule>
O=c1nc2n3c4c(cccc4nc-2c(=O)[nH]1)CCC3

>  <GI50>
> 100 µM (inactive)

$$$$
>  <molecule>
Cc1c(F)c(NC(=O)CN(C)C)c2c(=O)cc(-c3ccc(NC(=O)CN(C)C)c(F)c3)oc2c1F

>  <GI50>
19.1 µM (inactive)

$$$$

Consider now this further molecule.
// GI50 (UACC-62) for NC1=NCC(CN2CCCC2)O1 (stereo not given) = > 100 µM (inactive)

---

- Test system: MDA-MB-435
- experiment.description: NCI tumour cell line growth inhibition, 48 h
Activity calls are given as the source filed them. Cut-off read from the data, not from the text of the source: active = GI50 up to about 1.1 µM and inactive = higher.
Choose the fitting class; nothing outside T (active), F (inactive) is accepted.

>  <compound>
O=C1Nc2ccccc2/C1=N/NC(=S)NCc1ccccn1

>  <system.name>
MDA-MB-435

>  <qualitative.label>
T

$$$$

// param item: CSc1c(C#N)c(N)n2c1C(=O)N(c1ccccc1)C2=S ; yields the recorded call
F

So what was the verdict on Cn1cc(-c2cnc(-c3cn(C)c4ccccc34)cn2)c2ccccc21 in this test?
T

Please let me know the test result on file for CC(=O)NC1CC(C(C)(C)NC(C)=O)CC=C1C (stereo not drawn) .
F

Assay outcome for S=C1CC(c2ccccc2)Sc2cc(Cl)ccc2N1 (stereo not drawn) : what was it?
T

Hi, do you know how O=C(c1ccc(Cl)cc1)N1N=C(c2ccc(Cl)cc2)CC1(O)c1cc(F)c(Cl)cc1Cl (stereo not drawn) came out in this test?
F

Identify the outcome logged in this assay for the compound shown: CC1=NN(c2nc(N)nc(-c3sccc3N)n2)C(C)(C)C1
F

Could you please tell me the result logged for COc1ccc(/C=C/c2ccnc3ccccc23)cc1OC in this assay?
F

Please indicate how the test categorized COc1cc(/C=N/N=C2NCCCN2)ccc1O .
F

---

- Tested on: U-251
- experiment.description: NCI tumour cell line growth inhibition, 48 h
Calls of active or inactive are those of the source. Cut-off read from the data, not from the text of the source: active = GI50 up to about 1.1 µM and inactive = higher.
observable: GI50

>  <compound>
Oc1c(Cl)ccc2cccnc12

>  <system.name>
U-251

>  <GI50>
3.69 µM (inactive)

$$$$
>  <compound>
NC1=NCC(CN2CCCC2)O1 (configuration not stated)

>  <system.name>
U-251

>  <GI50>
> 100 µM (inactive)

$$$$
>  <compound>
CCOC(=O)c1c(C)n(Cc2ccccc2)c2c1cc(O)c1[nH]c3c(c12)CCCC3

>  <system.name>
U-251

>  <GI50>
1.81 µM (inactive)

$$$$
>  <compound>
NS(=O)(=O)c1ccc(NC(=S)NC(=O)Nc2ccc(Cl)c(Cl)c2)cc1

>  <system.name>
U-251

>  <GI50>
14.9 µM (inactive)

$$$$

Please fill in: GI50 reported for O=C(Nc1ccc(F)cc1)c1cc2ccc(O)cc2o/c1=N\c1ccccc1F = 19.9 µM (inactive)

# GI50 (compound: CC(CC(=O)O)C(C(=O)O)C(=O)O (configuration not stated) ) is > 100 µM (inactive)

Data point: C=C1CN(C(=O)c2cc3cc(OC)c(OC)c(OC)c3[nH]2)c2cc([N+](=O)[O-])ccc21 ; GI50 = 19.1 µM (inactive)

Entry CCOC(=O)/C(C(=S)NCc1ccccc1)=C(/N)N1CCCC1 ; GI50 = > 100 µM (inactive)

Measured GI50 of CCN(CC)c1c(C)c(C(=O)OC)nn1-c1ccccc1 : 61.1 µM (inactive)

Entry NC1C2C=CC(C2)C1C(=O)O (configuration not stated) — recorded GI50 = > 100 µM (inactive)

Quick note, GI50 for CC1=[N+](C)CCN1C landed at > 100 µM (inactive)

So, COc1cccc(CCN2CCN(CCCc3ccccc3)CC2)c1 ? Its GI50 was > 100 µM (inactive)

---

- System: MDA-MB-231
- experiment.description: NCI tumour cell line growth inhibition, 48 h
Active and inactive are the calls of the source. Cut-off read from the data, not from the text of the source: active = GI50 up to about 1.1 µM and inactive = higher. Where a SMILES comes first, the peptide text is derived from it. [ ]: non-standard residue; d: D form. ξ: configuration not given here. ξThz(5,5-Me2) = CC1(C)SCNC1C(=O)O
Reported GI50 values follow for various compounds

>  <compound>
CCOc1nnnc2[nH]cnc12

>  <system.name>
MDA-MB-231

>  <GI50>
> 100 µM (inactive)

$$$$

// CSCC[C@H](NC(=O)[C@H](CC(C)C)NC(=O)[C@H](Cc1c[nH]cn1)NC(=O)CNC(=O)C1N(C(=O)[C@@H](C)NC(=O)[C@H](Cc2c[nH]c3ccccc23)NC(=O)[C@H](CCC(N)=O)NC(=O)[C@@H](N)CC(N)=O)CSC1(C)C)C(N)=O (some centres undefined) (H-NQW[dA][ξThz(5,5-Me2)]GHLM-NH2) : GI50 value = > 25 µM (inactive)

// recorded GI50 for CCO/N=C(/CC)c1ccc(Br)s1 : > 100 µM (inactive)
